- System: K. pneumoniae GN_106, PmxR
- MEASUREMENT_SETUP: GN 106, PmxR
Positions of bridges follow the written chain, without caps; N, C: chain ends. Non-standard residues stand in square brackets, D forms with d. Residues, ends and D or L forms follow the SMILES beside them. *: point of attachment. Cholyl = C[C@H](CCC(=O)*)[C@H]1CC[C@H]2[C@@H]3[C@H](O)C[C@@H]4C[C@H](O)CC[C@]4(C)[C@H]3C[C@H](O)[C@]12C; Decanoyl(3R-OH) = CCCCCCC[C@@H](O)CC(=O)*; dPhe(3-Cl) = N[C@H](Cc1cccc(Cl)c1)C(=O)O; Decanoyl = CCCCCCCCCC(=O)*; dDab = NCC[C@@H](N)C(=O)O; dDap = NC[C@@H](N)C(=O)O; Dab = NCC[C@H](N)C(=O)O
What MIC K. pneumoniae GN_106, PmxR was measured for each of the following?
// units = µg/mL; emit number, no label

Return MIC K. pneumoniae GN_106, PmxR (reported value) for this molecule: CCCCCCC[C@@H](O)CC(=O)N[C@@H](C)C(=O)N[C@H]1CCNC(=O)[C@H](CC(C)C)NC(=O)[C@H](CCN)NC(=O)[C@H](CCN)NC(=O)[C@H](CC(C)C)NC(=O)[C@@H](Cc2ccccc2)NC(=O)[C@H](CCN)NC1=O [compound 4950] ({Decanoyl(3R-OH)}-A[Dab][Dab][dF]L[Dab][Dab]L; lactam 2-C)
32

Return MIC K. pneumoniae GN_106, PmxR (reported value) for this molecule: CCCCCCC[C@@H](O)CC(=O)N[C@H](CN)C(=O)N[C@H]1CCNC(=O)[C@H](CC(C)C)NC(=O)[C@H](CCN)NC(=O)[C@H](CCN)NC(=O)[C@H](CC(C)C)NC(=O)[C@@H](Cc2ccccc2)NC(=O)[C@H](CCN)NC1=O [compound 6442] ({Decanoyl(3R-OH)}-[dDap][Dab][Dab][dF]L[Dab][Dab]L; lactam 2-C)
4

Return MIC K. pneumoniae GN_106, PmxR (reported value) for this molecule: CC(C)C[C@@H]1NC(=O)[C@H](CCN)NC(=O)[C@H](CCN)NC(=O)[C@H](CC(C)C)NC(=O)[C@@H](Cc2ccccc2)NC(=O)[C@H](CCN)NC(=O)[C@@H](NC(=O)[C@@H](CCN)NC(=O)CC[C@@H](C)[C@H]2CC[C@H]3[C@@H]4[C@H](O)C[C@@H]5C[C@H](O)CC[C@]5(C)[C@H]4C[C@H](O)[C@]23C)CCNC1=O [compound 5016] (Cholyl-[dDab][Dab][Dab][dF]L[Dab][Dab]L; lactam 2-C)
16

Return MIC K. pneumoniae GN_106, PmxR (reported value) for this molecule: CCCCCCCCCC(=O)N[C@@H](CCN)C(=O)N[C@H]1CCNC(=O)[C@H](CC(C)C)NC(=O)[C@H](CCN)NC(=O)[C@H](CCN)NC(=O)[C@H](CC(C)C)NC(=O)[C@@H](Cc2ccccc2)NC(=O)[C@H](CCN)NC1=O [compound 5568] (Decanoyl-[Dab][Dab][Dab][dF]L[Dab][Dab]L; lactam 2-C)
16

Return MIC K. pneumoniae GN_106, PmxR (reported value) for this molecule: CCCCCCC[C@@H](O)CC(=O)N[C@H](CCN)C(=O)N[C@H]1CCNC(=O)[C@H](Cc2c[nH]c3ccccc23)NC(=O)[C@H](CCN)NC(=O)[C@H](CCN)NC(=O)[C@H](CC(C)C)NC(=O)[C@@H](Cc2cccc(Cl)c2)NC(=O)[C@H](CCN)NC1=O [compound 8914] ({Decanoyl(3R-OH)}-[dDab][Dab][Dab][dPhe(3-Cl)]L[Dab][Dab]W; lactam 2-C)
4
